Values compiled from patent US9604936B2.

Test: Solubility of Compound 2 by manual dilution combined with visual observation
Type: physicochemical
Details: organic solvent or mixture, thermodynamic from solid; Methanol, room temperature
endpointName: solubility

Query: Bench note: what solubility did C=CC(=O)Nc1cccc(Nc2nc(Nc3ccc(OCCOC)cc3)ncc2F)c1.O=S(=O)(O)c1ccccc1 show?
Response: 26 to 29 mg/mL

====

Assay: Solubility of Compound 2 by manual dilution combined with visual observation
Type: physicochemical
Details: organic solvent or mixture, thermodynamic from solid; TBME, room temperature
endpointName: solubility

Query: Find the recorded solubility belonging to C=CC(=O)Nc1cccc(Nc2nc(Nc3ccc(OCCOC)cc3)ncc2F)c1.O=S(=O)(O)c1ccccc1 and report it.
Response: < 1000 µg/mL
